// data source = patent US11980612B2

Test system: PGE2 release from TERT keratinocytes (tKC)
Test: PGE2 assay: inhibition of PGE2 release from UVB-stressed TERT keratinocytes, normalized to ATP
Assay type: cell-based, human
Study Conditions: strobilurin 1 × 10−8 w/v %; PO 1 × 10−7 w/v %; strobilurin:PO ratio 1:10; actives alone or combination (observed); 15 mJ/cm2 UVB, 18-24 hours
# if value of % PGE2 Inhibition reaches 3%, tag 1; if it stays below, tag 0

compound=CON=C(C(=O)OC)c1ccccc1CON=C(C)c1cccc(C(F)(F)F)c1 cat=0
compound=CNC(=O)/C(=N/OC)c1ccccc1COc1cc(C)ccc1C cat=1
compound=CO/C=C(/C(=O)OC)c1ccccc1Oc1cc(Oc2ccccc2C#N)ncn1 cat=0
compound=CO/N=C(/C1=NOCCO1)c1ccccc1Oc1ncnc(Oc2ccccc2Cl)c1F cat=1
compound=CNC(=O)/C(=N/OC)c1ccccc1CO/N=C(C)/C(=N/OC)C(/C)=N/OC cat=1
compound=CO/N=C(/C(=O)OC)c1ccccc1COc1ccccc1C cat=1
compound="Cc1cc(CC(C)CC(C)(C)C)n(O)c(=O)c1.NCCO (centres unmarked)" cat=0
compound=CO/C=C(/C(=O)OC)c1ccccc1COc1cccc(C(F)(F)F)n1 cat=1

###

Tested on: PGE2 release from TERT keratinocytes (tKC)
Test: PGE2 assay: inhibition of PGE2 release from UVB-stressed TERT keratinocytes, normalized to ATP
Format: cell-based, human
Study Conditions: strobilurin 4 × 10−7 w/v %; PO 1 × 10−7 w/v %; strobilurin:PO ratio 4:1; actives alone or combination (observed); 15 mJ/cm2 UVB, 18-24 hours
% PGE2 Inhibition values, listed per item
Measured Quantity: % PGE2 Inhibition (%)

compound="CNC(=O)/C(=N/OC)c1ccccc1CO/N=C(C)/C(=N/OC)C(/C)=N/OC [orysastrobin]" measured_value=4.7
compound="CO/N=C(/C1=NOCCO1)c1ccccc1Oc1ncnc(Oc2ccccc2Cl)c1F [fluoxastrobin]" measured_value=8.6
compound="CON=C(C(=O)OC)c1ccccc1CON=C(C)c1cccc(C(F)(F)F)c1 [trifloxystrobin]" measured_value=8.3
compound="CO/C=C(/C(=O)OC)c1ccccc1Oc1cc(Oc2ccccc2C#N)ncn1 [azoxystrobin]" measured_value=13
compound="CNC(=O)/C(=N/OC)c1ccccc1COc1cc(C)ccc1C [dimoxystrobin]" measured_value=12.4
compound="CO/C=C(/C(=O)OC)c1ccccc1COc1cccc(C(F)(F)F)n1 [picoxystrobin]" measured_value=16.7
compound="CO/N=C(/C(=O)OC)c1ccccc1COc1ccccc1C [kresoxim methyl]" measured_value=6.7

###

System: PGE2 release from TERT keratinocytes (tKC)
Test: PGE2 assay: inhibition of PGE2 release from UVB-stressed TERT keratinocytes, normalized to ATP
Format: cell-based, human
Study Conditions: strobilurin 1 × 10−7 w/v %; PO 1 × 10−7 w/v %; strobilurin:PO ratio 1:1; actives alone or combination (observed); 15 mJ/cm2 UVB, 18-24 hours
Measured Quantity: % PGE2 Inhibition (%)

compound="CON=C(C(=O)OC)c1ccccc1CON=C(C)c1cccc(C(F)(F)F)c1 [trifloxystrobin]" target_or_test_system="PGE2 release from TERT keratinocytes (tKC)" units_text=% measured_value=3.2
compound="CO/N=C(/C(=O)OC)c1ccccc1COc1ccccc1C [kresoxim methyl]" target_or_test_system="PGE2 release from TERT keratinocytes (tKC)" units_text=% measured_value=4.1
compound="Cc1cc(CC(C)CC(C)(C)C)n(O)c(=O)c1.NCCO (centres unmarked) [PO, piroctone olamine]" target_or_test_system="PGE2 release from TERT keratinocytes (tKC)" units_text=% measured_value=3.2
compound="CO/N=C(/C1=NOCCO1)c1ccccc1Oc1ncnc(Oc2ccccc2Cl)c1F [fluoxastrobin]" target_or_test_system="PGE2 release from TERT keratinocytes (tKC)" units_text=% measured_value=5.6
compound="CO/C=C(/C(=O)OC)c1ccccc1COc1cccc(C(F)(F)F)n1 [picoxystrobin]" target_or_test_system="PGE2 release from TERT keratinocytes (tKC)" units_text=% measured_value=2.5
compound="CNC(=O)/C(=N/OC)c1ccccc1COc1cc(C)ccc1C [dimoxystrobin]" target_or_test_system="PGE2 release from TERT keratinocytes (tKC)" units_text=% measured_value=18.9
compound="CO/C=C(/C(=O)OC)c1ccccc1Oc1cc(Oc2ccccc2C#N)ncn1 [azoxystrobin]" target_or_test_system="PGE2 release from TERT keratinocytes (tKC)" units_text=% measured_value=8
compound="CNC(=O)/C(=N/OC)c1ccccc1CO/N=C(C)/C(=N/OC)C(/C)=N/OC [orysastrobin]" target_or_test_system="PGE2 release from TERT keratinocytes (tKC)" units_text=% measured_value=8.2
